- tgt: Human HER3, endogenous, on human cancer cell lines (SK-Br-3, MCF7, BT-474) (human, UniProt P21860 20-1342)
- Sequence (P21860 20-1342): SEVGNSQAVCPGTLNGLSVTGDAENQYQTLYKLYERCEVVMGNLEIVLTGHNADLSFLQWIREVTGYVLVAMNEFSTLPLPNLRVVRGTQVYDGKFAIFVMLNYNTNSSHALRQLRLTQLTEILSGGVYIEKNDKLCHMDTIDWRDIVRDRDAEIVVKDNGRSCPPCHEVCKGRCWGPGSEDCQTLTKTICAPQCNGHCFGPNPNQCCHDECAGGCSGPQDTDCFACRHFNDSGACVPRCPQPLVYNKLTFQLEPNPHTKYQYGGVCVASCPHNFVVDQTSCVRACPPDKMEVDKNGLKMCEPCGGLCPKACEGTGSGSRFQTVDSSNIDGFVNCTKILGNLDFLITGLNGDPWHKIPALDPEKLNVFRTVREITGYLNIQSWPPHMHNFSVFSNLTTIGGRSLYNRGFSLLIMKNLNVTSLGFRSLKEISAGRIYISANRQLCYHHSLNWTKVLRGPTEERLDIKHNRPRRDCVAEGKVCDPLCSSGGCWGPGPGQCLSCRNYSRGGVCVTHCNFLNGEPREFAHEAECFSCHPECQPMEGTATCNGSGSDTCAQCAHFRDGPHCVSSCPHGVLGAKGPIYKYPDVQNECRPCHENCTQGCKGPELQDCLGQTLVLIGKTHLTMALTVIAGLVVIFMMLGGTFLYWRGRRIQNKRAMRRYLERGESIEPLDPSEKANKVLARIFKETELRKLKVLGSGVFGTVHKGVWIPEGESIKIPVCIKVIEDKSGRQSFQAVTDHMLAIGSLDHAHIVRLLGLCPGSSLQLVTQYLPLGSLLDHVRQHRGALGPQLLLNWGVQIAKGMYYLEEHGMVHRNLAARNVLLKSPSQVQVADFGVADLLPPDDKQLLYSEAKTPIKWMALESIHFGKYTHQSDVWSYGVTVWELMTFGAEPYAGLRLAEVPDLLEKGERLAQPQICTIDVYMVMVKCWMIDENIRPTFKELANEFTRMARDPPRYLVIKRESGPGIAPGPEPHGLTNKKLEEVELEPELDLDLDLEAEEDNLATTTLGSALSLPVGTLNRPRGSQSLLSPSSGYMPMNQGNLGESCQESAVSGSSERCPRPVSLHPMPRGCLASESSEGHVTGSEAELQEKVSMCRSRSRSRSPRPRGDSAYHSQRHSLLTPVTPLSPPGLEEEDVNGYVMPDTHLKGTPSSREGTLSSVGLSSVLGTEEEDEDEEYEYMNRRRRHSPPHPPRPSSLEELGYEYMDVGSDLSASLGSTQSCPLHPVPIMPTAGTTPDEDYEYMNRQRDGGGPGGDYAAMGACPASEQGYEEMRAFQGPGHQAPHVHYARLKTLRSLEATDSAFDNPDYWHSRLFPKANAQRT
- procedure_text: cell-based or functional assay
measured_attribute: SK-Br-3 proliferation % inhibition (%)
# number only, unit % dropped from output

# binder, measured
records = [
    ("MOR13870 (antibody, human IgG1, kappa, V domains shown, tested as IgG) VH: QVQLVQSGAEVKKPGESLKISCKGSGYSFSNYWIAWVRQMPGKGLEWMGIIYPGTSDTIYSPSFQGQVTISADKSISTAYLQWSSLKASDTAMYYCARVHIIQPPSAWSYNAMDVWGQGTLVTVSS VL: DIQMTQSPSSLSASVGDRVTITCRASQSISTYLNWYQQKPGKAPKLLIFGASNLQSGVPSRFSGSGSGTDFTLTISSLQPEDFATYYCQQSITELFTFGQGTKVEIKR", 39),
]

SK-Br-3 proliferation % inhibition in this record for MOR13867 (antibody, human IgG1, kappa, V domains shown, tested as IgG) VH: QVQLVQSGAEVKKPGESLKISCKGSGYSFSNYWIAWVRQMPGKGLEWMGIIYPGQSDTIYSPSFQGQVTISADKSISTAYLQWSSLKASDTAMYYCARVHIIQPPSAWSYNAMDVWGQGTLVTVSS VL: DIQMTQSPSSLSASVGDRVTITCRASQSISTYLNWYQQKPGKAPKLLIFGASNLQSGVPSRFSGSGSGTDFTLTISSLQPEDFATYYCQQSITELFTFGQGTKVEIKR : 41
